Cited source: ChEMBL document CHEMBL3868624

Experiment: Cytotoxicity against human SH-SY5Y cells assessed as cell viability at 12.5 uM after 48 hrs by MTT assay relative to control
Type: toxicity, cell-based
Settings: read-out: Activity
MEASUREMENT_TYPE: viability at 48 h, 12.5 µM

Some compounds with known viability at 48 h, 12.5 µM results, for comparison:
CN(C)C(=O)Oc1cccc(C(=O)/C=C/c2ccc(O)cc2)c1 96.5 to 96.7%
CCN(C)C(=O)Oc1ccccc1C(=O)/C=C/c1ccc(O)cc1 76.4%

API: the following record is the query input.
Measured viability at 48 h, 12.5 µM, "CN(C)C(=O)Oc1cccc(/C=C/C(=O)c2ccc(O)cc2)c1" : 69.9%
